Source of measurements: ChEMBL document CHEMBL1157505

Target or system: Somatostatin receptor type 1 (Homo sapiens, UniProt P30872)
Sequence (P30872 whole entry): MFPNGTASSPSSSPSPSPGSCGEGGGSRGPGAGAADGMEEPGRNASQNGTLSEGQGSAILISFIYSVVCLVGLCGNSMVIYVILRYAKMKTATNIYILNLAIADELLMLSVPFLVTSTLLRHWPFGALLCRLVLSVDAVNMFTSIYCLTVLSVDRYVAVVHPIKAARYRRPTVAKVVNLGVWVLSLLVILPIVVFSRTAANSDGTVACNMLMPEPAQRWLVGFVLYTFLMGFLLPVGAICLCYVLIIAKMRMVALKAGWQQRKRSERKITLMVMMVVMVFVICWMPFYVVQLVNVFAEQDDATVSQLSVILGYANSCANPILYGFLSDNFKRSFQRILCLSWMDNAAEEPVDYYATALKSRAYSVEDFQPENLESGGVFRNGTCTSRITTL
Observable: IC50

Ask: // IC50 lookup, key: C[C@@H](O)[C@@H]1NC(=O)[C@H](CCCCN)NC(=O)[C@@H](Cc2ccc(NC(N)=O)cc2)NC(=O)[C@H](Cc2ccc(NC(=O)[C@@H]3CC(=O)NC(=O)N3)cc2)NC(=O)[C@H](NC(=O)[C@@H](N)Cc2ccc(Cl)cc2)CSSC[C@@H](C(=O)N[C@@H](Cc2ccc3ccccc3c2)C(N)=O)NC1=O
Reply: > 1000 nM

---

Target or system: Somatostatin receptor type 2 (Homo sapiens)
Sequence (P30874 whole entry): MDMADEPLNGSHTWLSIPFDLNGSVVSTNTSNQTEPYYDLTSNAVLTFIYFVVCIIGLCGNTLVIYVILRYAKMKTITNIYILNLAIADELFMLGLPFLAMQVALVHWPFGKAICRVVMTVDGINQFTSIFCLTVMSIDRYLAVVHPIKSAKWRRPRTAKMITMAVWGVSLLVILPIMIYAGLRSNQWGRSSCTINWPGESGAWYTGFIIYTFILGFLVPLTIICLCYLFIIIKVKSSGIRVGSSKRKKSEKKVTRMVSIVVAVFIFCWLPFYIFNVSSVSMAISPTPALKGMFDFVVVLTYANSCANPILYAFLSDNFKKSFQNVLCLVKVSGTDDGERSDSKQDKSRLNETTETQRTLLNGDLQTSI
Measurement description: Antagonist activity at T7 epitope tagged human cloned sst2 receptor expressed in HEK293 cells assessed as inhibition of [Tyr3]octreotide-induced receptor internalization upto 10 uM
Format: functional, cell-based
Calls of active or inactive are those of the source. No cut-off for these calls is given here.
Observable: Activity

C[C@@H](O)[C@@H]1NC(=O)[C@H](CCCCN)NC(=O)[C@@H](Cc2ccc(NC(N)=O)cc2)NC(=O)[C@H](Cc2ccc(O)cc2)NC(=O)[C@H](NC(=O)[C@@H](Cc2ccc([N+](=O)[O-])cc2)NC(=O)CN2CCN(CC(=O)O)CCN(CC(=O)O)CCN(CC(=O)O)CC2)CSSC[C@@H](C(=O)N[C@H](Cc2ccc(O)cc2)C(N)=O)NC1=O
Active
C[C@@H](O)[C@@H]1NC(=O)[C@H](CCCCN)NC(=O)[C@@H](Cc2ccc(NC(N)=O)cc2)NC(=O)[C@H](Cc2ccc(O)cc2)NC(=O)[C@H](NC(=O)[C@H](N)Cc2ccc([N+](=O)[O-])cc2)CSSC[C@@H](C(=O)N[C@@H](Cc2ccc3ccccc3c2)C(N)=O)NC1=O
Active
C[C@@H](O)[C@@H]1NC(=O)[C@H](CCCCN)NC(=O)[C@@H](Cc2c[nH]c3ccccc23)NC(=O)[C@H](Cc2ccc(O)c(I)c2)NC(=O)[C@H](NC(=O)[C@@H](Cc2ccc([N+](=O)[O-])cc2)NC(=O)CN2CCN(CC(=O)O)CCN(CC(=O)O)CCN(CC(=O)O)CC2)CSSC[C@@H](C(=O)N[C@H](Cc2ccc(O)cc2)C(N)=O)NC1=O
Active
